Task for the reader: assign each of the following compounds its reported pIC50.
# ASSAYED TARGET: Polybromodomain-1 BromoDomain-5 (PB1-BD5) (Homo sapiens, UniProt Q86U86)
# Sequence (Q86U86 645-766): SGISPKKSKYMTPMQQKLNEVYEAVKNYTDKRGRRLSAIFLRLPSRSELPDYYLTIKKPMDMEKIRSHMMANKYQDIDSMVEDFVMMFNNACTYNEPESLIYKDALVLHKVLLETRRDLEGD
# ASSAY METHOD TEXT: biochemical
Numbers only, as −log10 of the molar value.

Worked cases, answers included:
Nc1nnc(-c2ccccc2O)cc1N1CC2CCC(C1)N2Cc1ccccc1    7.29
CS(=O)(=O)N1CCN(c2cc(-c3ccccc3O)nnc2N)CC1Cc1ccccc1 (stereo not shown)    7.63
CN(C)CCOc1cc(-c2ccccc2O)nnc1N    6.59

Switching to the query record.
pIC50 reported for this compound "Cn1cc(-c2cc(-c3ccccc3O)nnc2N)cn1" : 8.43
